Cited source: patent US20240270793A1

- EXPERIMENTAL_SYSTEM: T1, human HIF-1α PAS-B (238-349), recombinant, His-tagged (human, UniProt Q16665 238-349, labelled with Monolith NT-647 dye for MST)
- T1 construct: range 238-349; Expressed in E. coli BL21(DE3)-Rosetta from pET28a; also called HIF-1α PAS-B domain; PAS-B domain of HIF-1α; not shown: His tag from pET28a vector (BamHI/SacI cloning)
- T1 sequence (Q16665 238-349): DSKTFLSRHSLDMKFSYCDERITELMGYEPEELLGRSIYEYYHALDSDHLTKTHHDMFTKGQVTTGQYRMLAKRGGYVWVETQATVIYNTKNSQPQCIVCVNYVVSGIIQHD
- METHOD_NOTES: MST, HIF-1α PAS-B; bar chart of Kd (µM) for residues at position 5 of CRLIIF
Square brackets hold non-standard residues; d marks the D form. Nle = CCCC[C@H](N)C(=O)O; Nva = CCC[C@H](N)C(=O)O
QUANTITY_MEASURED: binding result

Would you mind telling me what binding result value was observed for cyclo(CRLI[Nle]F) (SMILES CCCC[C@@H]1NC(=O)[C@H]([C@@H](C)CC)NC(=O)[C@H](CC(C)C)NC(=O)[C@H](CCCNC(=N)N)NC(=O)[C@H](CS)NC(=O)[C@H](Cc2ccccc2)NC1=O, also called Cyclo-CRLI(Nle)F; cyclic peptide #34) [cyclo-cys arg leu ile (n-leu) phe] ?
binds

# iterate: cyclo(CRLI[Nva]F) (SMILES CCC[C@@H]1NC(=O)[C@H]([C@@H](C)CC)NC(=O)[C@H](CC(C)C)NC(=O)[C@H](CCCNC(=N)N)NC(=O)[C@H](CS)NC(=O)[C@H](Cc2ccccc2)NC1=O, also called Cyclo-CRLI(Nva)F; cyclic peptide #35) [cyclo-cys arg leu ile (Nva) phe]
binds
